Target: T1, human 4-1BB-His protein (human, UniProt Q07011 24-186)
T1 construct: Recombinant His-tagged protein; also called human 4-1BB-his tag; recombinant 4-1BB protein; not shown: His tag
Assay: SPR, Biacore T200, antibody captured on Protein A chip, human 4-1BB-His as analyte
Test Readout: kon (M⁻¹ s⁻¹)
Respond numerically; units are M⁻¹ s⁻¹ and should not be typed.

{"Binder": "B31-V4 humanized antibody (VHH, Humanized VHH captured on a Protein A chip; also called B31 VHH-V4) VHH: QVQLVESGGGLVQPGGSLRLSCAASGDIFSIMFWYRQAPGKQREYVAHITSNGRTNYADSVTGRFTISRDNSKNTMYLQMDSLRAEDTAVYYCAADDATNTRTYWGQGTLVTVSS", "Readout Value": "1.15e+06"}
{"Binder": "B31-V2 humanized antibody (VHH, Humanized VHH expressed in 293F cells and captured on a Protein A chip; also called B31 VHH-V2) VHH: QVQLVESGGGLVQPGGSLRLSCSASGDIFSIMFWYRQAPGKQREYVSHITSNGRTNYADSVTGRFTISRDNSKNTLYLQMNSLRAEDTAVYYCAADDATNTRTYWGQGTLVTVSS", "Readout Value": 517000}

Given item B31-V3 humanized antibody (VHH, Humanized VHH captured on a Protein A chip; also called B31 VHH-V3) VHH: QVQLVESGGGLVQPGGSLRLSCAASGDIFSIMFWYRQAPGKQREYVAHITSNGRTNYADSVTGRFTISRDNNKNTLYLQMNSLRAEDTAVYYCAADDATNTRTYWGQGTLVTVSS , the value recorded as its kon is 526000

Given item B31-V6 humanized antibody (VHH, Humanized VHH captured on a Protein A chip; also called B31 VHH-V6) VHH: QVQLVESGGGLVQPGGSLRLSCSASGDIFSIMFWYRQAPGKQREYVAHITSNGRTNYADSVTGRFTISRDNSKNTLYLQMNSLRAEDTAVYYCARDDATNTRTYWGQGTLVTVSS , the value recorded as its kon is 237000
